target: CDK2/Cyclin A (Homo sapiens, UniProt P24941); assay: Inhibition of CDK2/Cyclin A Retinoblastoma Kinase Activity; type: biochemical; conditions: at 0.03 μM
QUANTITY: CDK2 % Inhibition at 0.03 μM (%)

// worked examples, CDK2 % Inhibition at 0.03 μM included
Entry Cc1ccc(C(=O)N2CCC(Nc3nc(N)c(C(=O)c4c(F)cccc4F)s3)CC2)cc1C — recorded CDK2 % Inhibition at 0.03 μM = 68

compound CCC(=O)N1CCC(Nc2nc(N)c(C(=O)c3c(F)cccc3F)s2)CC1 , CDK2 % Inhibition at 0.03 μM observed: 34

Briefly, CDK2 % Inhibition at 0.03 μM measured for CC(=Cc1ccccc1)C(=O)N1CCC(Nc2nc(N)c(C(=O)c3c(F)cccc3F)s2)CC1 : 26

In plain terms, Nc1nc(NC2CCN(C(=O)COc3cc(Cl)c(Cl)cc3Cl)CC2)sc1C(=O)c1c(F)cccc1F has a documented CDK2 % Inhibition at 0.03 μM of −10

For record COc1cc(C(=O)N2CCC(Nc3nc(N)c(C(=O)c4c(F)cccc4F)s3)CC2)ccc1C the listed CDK2 % Inhibition at 0.03 μM is 45

[1] CC(=O)Oc1ccccc1C(=O)N1CCC(Nc2nc(N)c(C(=O)c3c(F)cccc3F)s2)CC1
[2] Nc1nc(NC2CCN(C(=O)C3CC3)CC2)sc1C(=O)c1c(F)cccc1F
[3] Nc1nc(NC2CCN(C(=O)c3cc(Cl)ccc3O)CC2)sc1C(=O)c1c(F)cccc1F
Output the entries ranked by CDK2 % Inhibition at 0.03 μM from maximum down to minimum. Please, when replying, give the labels in the order that was requested.
1, 3, 2
(1: 44%, 3: 18%, 2: 3%)
